Test system: K-562 leukemia
assayExplanation: NCI tumour cell line growth inhibition, 48 h
I'd appreciate it if you could supply GI50 values for the items below.

Here are 3 compounds together with their reported answers.
[
  {
    "compound": "COc1ccc(N=N/C(=N\\NC(=O)c2cc(Br)ccc2O)c2ccc(N(CCC#N)CCC#N)cc2OC)cc1",
    "measurementType": "GI50",
    "result": "74.9 µg/mL"
  },
  {
    "compound": "[N-]=[N+]=NCCCn1c2c(c3ccc([N+](=O)[O-])cc3c1=O)C(=O)c1cc(I)ccc1-2",
    "measurementType": "GI50",
    "result": "5.15 µM"
  },
  {
    "compound": "Nc1nc(=S)c2ncn(C3OC(CO)C(O)C3O)c2[nH]1 (stereo unspecified)",
    "measurementType": "GI50",
    "result": "0.49 µM"
  }
]

Record GI50 per entry; entries follow.
1. C=C1C[C@@H](O)[C@@H](Br)C(C)(C)[C@]12CCC(C)(Br)C(Cl)C2 (stereo partly specified)
2. O=C(Nc1ccc(Oc2ccc(NC(=O)Nc3ccccc3Cl)cc2)cc1)Nc1ccccc1Cl
3. O=C1Nc2ccc(O)cc2/C1=C\c1ccncc1
4. Clc1ccc(C2CC(c3cccc(Nc4ccncc4)c3)=NN2c2ccccc2)cc1 (stereo unspecified)

1. 19.2 µM
2. 2.63 µM
3. 17.7 µM
4. 1.67 µM

Record GI50 per entry; entries follow.
1. Cc1ccc(/C=C(/C#N)n2nnc3ncccc32)cc1
2. CON=C1C[C@]2(C[C@@H]3C[C@@H](C/C=C(\C)C[C@@H](C)/C=C/C=C4\CO[C@@H]5[C@H](O)C(C)=C[C@@H](C(=O)O3)[C@]45O)O2)O[C@H](/C(C)=C/C(C)C)[C@H]1C
3. CCSc1nc(NC(C)c2ccccc2)c2cnn(CO)c2n1 (stereo unspecified)
4. N.N.N.N.N.N#Cc1nn[n-]n1.[Cl-].[Co+3]
5. O=C(/C=C\c1cc(Br)ccc1O)/C=C/c1cc(Br)ccc1O
6. COc1cccc(CCNC(=O)CC(c2ccccc2)(c2ccccc2)c2ccccc2)c1
7. NS(=O)(=O)c1ccc(N=Nc2c(O)[nH]c3ccc(C(=O)NCCc4cnc[nH]4)cc23)cc1
8. Fc1ccc(Nc2ncc(-c3cc(F)c(Cl)cc3Cl)s2)cc1Cl

0.545 µM
3.69 µM
29.2 µM
> 100 µM
0.445 µM
6.03 µM
> 25 µM
3.46 µM

Provide one value: measured GI50 of "COc1ccc(CN2C(=O)/C(=C\C(=O)c3ccc(OCCN4CCCC4)cc3)c3ccccc32)cc1"
2.05 µM

----------
Test system: MDA-MB-231 breast
assayExplanation: NCI tumour cell line growth inhibition, 48 h
Where a SMILES comes first, the peptide text is derived from it. The star is where a group is joined. Boc = CC(C)(C)OC(=O)*
I'd appreciate it if you could supply TGI values for the items below.

[
  {
    "compound": "Cc1cccc2c(N)c3cccc(C(=O)NCC[N+](C)(C)Cc4ccc(S(C)(=O)=O)cc4)c3nc12",
    "testedTarget": "MDA-MB-231 breast",
    "result": "> 100 µM"
  }
]

Record TGI per entry; entries follow.
1. Cc1cc(I)cc(CNCCN2CCOCC2)c1O
2. COc1cc(N2CCN(C(C)C)CC2)ccc1Nc1nc(Nc2ccc(F)cc2C(=O)NCC(O)CO)c2cc[nH]c2n1 (centres undefined)
3. COc1ccc(Cc2cc(OC)c(OC)c(OC)c2)cc1
4. CC(NC(=O)C(N)CC(=O)O)C(=O)OC12CC3CC(CC(C3)C1)C2 (centres undefined)
5. COc1cccc(CCNC(=O)CC(c2ccccc2)(c2ccccc2)c2ccccc2)c1
6. CC(NC(=O)C1CCCN1C(=O)CNC(=O)OC(C)(C)C)C(=O)O (stereo not drawn) (Boc-Gly-Pro-Ala-OH; configuration not given here)
7. O=C(COc1cccc(/C=C2\COc3ccccc3C2=O)c1)c1ccccc1

> 100 µM
> 25 µM
> 30.7 µM
> 100 µM
> 100 µM
> 100 µM
22.9 µM

Provide one value: measured TGI of "C=C1C(=O)O[C@@H]2C[C@@H]1CC[C@]1(C)O[C@H]1CC/C(C)=C/CC[C@@]2(C)O"
48.8 µM
